Hello, the source for this data is the nanobody polyreactivity screen of Harvey et al. (2022), in case you need it.

- ASSAY SUMMARY: yeast display, Sf9 membrane polyspecificity reagent, FACS + sequencing; frameworks hold sequencing errors
ATTRIBUTE MEASURED: polyreactivity (PSR sort gate)

Below, 6 sequences whose answers are already recorded.
QVQLVESGGGLVQAGGSLRLSCAASGSTFAGYAMGWYRQAPGKERELVAAISRGGRTYYADSVKGRFTISRDNAKNTVYLQMNSLKPEDTAVYYCAKYSAWYTYTYDYWGQGTQVTVSS    high polyreactivity
QVQLVESGGGLVQAGGSLRLSCAASGSIFVGYARGWYRQAPGKERELVAAISFSGGSTYYADSVKGRFTLSRDNAKNTVYLQMNSLKPEDTAVYYCNAYSWYNGIGNYDYWGQGTQVTVSS    low polyreactivity
QVQLVESGGGLVQAGGSLRLSCAASGRIFVRNAMGWYRQAPGKERELVADITNGGSTNYADSVKGRFTISRDNAKNTVYLQMNSLKPEDTAVYYCAADTLGVYDGDYWGQGTQVTVSS    low polyreactivity
QVQLVESGGGLVQAGGSLRLSCAASGFTFGWYDMGWYRQAPGKERELVASISWSGSSTYYADSVKGRFTISRDNAKNTVYLQLNSLKPEDTAVYYCNDVSVDYVNWYWYDYWGQGTQVTVSS    high polyreactivity
QVQLVESGGGLVQAGGSLRLSCAASGRIFAENAMGWYRQAPGKERELVAAITDGGGSTYYADSVKGRFTISRDNAKNTVYLQMNSLKPEDTAVYYCNAYRYHLGVDFDYWGQGTQVTVSS    low polyreactivity
QVQLVESGGGLVQAGGRLRLSCAASGYIFDDKAMGWYRQAPGKERELVATNYADSVKGRFTISRDNAKNTVYLQMNSLKPEATAVYYCAAEAFYPWTSSRYIAYYYWGQGTQVTVSS    low polyreactivity

// batch mode: one polyreactivity (PSR sort gate) value per listed entry
1. QVKLVESGGCLVQAGCSLRLSCAASGRTFHGYAMGWYRQAPGTERELVAAITVSGDSTYYADSVKGRFTISRDNAKNTVYLQMNSLKPEDTAVYYCNASFREPSTPVYLVAFDYWGQGTQVTVSS
2. QVQLVESGGGLVQAGGSLRLSCAASGSTFSTYAMGWSRLAPGKERELVATISKRGGSTYYADSVKGRFTISRDNAKNTVYLQMNSLKPEDTAVYYCAARWQWLNGYYYWGQGTQVTVSS
3. QVQLVESGGGLVQAGGSLRLSCAASGLTFVDYAMGWYRPAPGKERELVAGISYSGGSTYYADSVKGRFTISRDNAKNTVYLQMNSLKPEDTAVYYCAAKYRRPRYGYWGQGTQVTVSS
4. QVQLVESGGGLVQAGGSLRLSCAASGRIFDCYAMGWYRQAPRKEREFVASISRRGGSTYYADSVKGRFTISRDNAKNTVYLQMNSLKPEDTAVYYCAADAFFRLDYYYWGQGTQVTVSS
5. QVQLVESGGGLVQAGGSLRLSCAASGSIFVKNVMGWYRQAPGKERELVAAISRGSSTYYADSVKGRFTISRDNAKNTVYLQMNSLKPEDTAVYYCAARGPYRLRNDEAFDYWGQGTQVTVSS

(A)
1. low polyreactivity
2. high polyreactivity
3. high polyreactivity
4. high polyreactivity
5. low polyreactivity

* * *

- ASSAY SUMMARY: yeast display, Sf9 membrane polyspecificity reagent, FACS + sequencing; frameworks hold sequencing errors
ATTRIBUTE MEASURED: polyreactivity (PSR sort gate)

Example cases with answers are listed next.
QVQLVESGGGLVQAGGSLRLSCAASGSISFSNAMGWYRQAPGKERELVASITSGGSTKYADSVKGRFTISRDNAKNTVFLQMNSLKPEDTAVFYCAADGYDYWGQGTQVTVSS    low polyreactivity
QVQLVESGGGLVQAGGSLRLSCAASGRIFYTNAMGWYRQAPGKERELVAAIKWNGGRTYYADSVKGRFTISRDNAKNTVYLQMNSLKPEDTAVYYCAAGAPVDPWYSGLVVLDGMDYWGQGTQVTVSS    low polyreactivity
QVQLVESGGGLVPAGGSLRLSCAASGSMNTLYAMGWYRHAPGKERDLVADITRSGGSTYYADSVKGRFTISRDNAMNTVYLQMNSLKPEDTAVYYCAADKAPYSTEGDYWGQGTQVTVSS    high polyreactivity
QVQVVESGGGLVQAGGSLRLSCAASGSIFNQYAMGWHRQAPGKERELVAAISSDGGRTYYADSVKGRFTISRDNAKNTVYLQMNSLKPEDTAVYYCNADFPAYGLQGDDYWGQGTQVTVSS    low polyreactivity
PVQLVESGGGLVPGGGSLRLSCAASGRIFNAYARGWYRQAPGKERELVAAISSRGGSTYYADSVKGRCTISRDNAKNSVYLQKNSLPPEDTAVYYCAAGIYTATGYGYWGQGTQVTVSS    high polyreactivity

// for each sequence in input: emit polyreactivity (PSR sort gate)
1. QVQLVESGGGLVQAGGSLRLSCAASGRIFRWNAMGWYRQAPGKEREFVAAISWNGGRTYYADSVMGRFTISRDNAKNTVYLQMNSLKPEDPAVYYCAATHSVPDLLSGDYWGQGTQVTVSS
2. QVQLVESGGGLVQAGGSLRLSCAASGGTFVTNAMGWYRQAPGKERELVAAISYDGGITYYADSVKGRFTISRDNAKNTVYLQMNSLKPEDTAVYYCAAYRRYRNWFNYWGQGTQVTVSS
3. QVQLVESGGGLVQAGGSLRLSCAASGRIFAFYAMGWYRQAPGKERQLVAVISKSGGTTYYADSVKGRFTISRDNAKNTVYLQMNSLKPEDTAVYYCNKRVFYRHGYSYNYWGQGTQVTVSS
4. QVQLVESGGGLVQAGGSLRLSCAASGYTVGNNAMGWYRQAPGKERELVARIRTNGGTTYYADSVKGRFTISRDNAKNTVYLQMNSLKPEDTAVYYCNAYRGYEYDYWGQGTQVTVSS
5. QVQLVESGGGLVQAGGSLRLSCAASGRISIKNAMGWYRQAPGKERELVAAIRWSADSTYYADSVKGRFTISRDNAKNTVYLQMNSLIPEDTAVYYCAATGRLRYYWGQGTQVTVSS
6. QVQLVESGGGLVQAGGSLRLSCAASGSIFSINAMGWYRQAPGKERELVAAISWDGGSTYYADSVKGRFTISRDNAKYTVYLQKNSLKPEDTAVYYCNAAGYVPRNIFAGSRSLRYDYWGQGTQVTVSS

(A)
1. low polyreactivity
2. high polyreactivity
3. high polyreactivity
4. low polyreactivity
5. high polyreactivity
6. high polyreactivity

* * *

- ASSAY SUMMARY: yeast display, Sf9 membrane polyspecificity reagent, FACS + sequencing; frameworks hold sequencing errors
ATTRIBUTE MEASURED: polyreactivity (PSR sort gate)

Below are worked cases with known answers.
QVQLVESGGGLVQAGGSLRLSCAASGFIFSRYAMGWYRQAPGKERELVAAISIGGSTYYADSVKGRFTISRDNAKNTVYLQMNSLKPEDTAVYYCAVDYRHSSSWNAGPWEMYYWGQGTQVTVSS    low polyreactivity
QVQLVESGGGLVQAGGSHRLSCAASGRTYVYNAMGWYRQAPGKERELDAGITNGGSTNYADSVKGRFTISRDNAKNTVYLQMNSLKPEDTAVYYCAADSRVYPYYFGDFGYWGQGTQVTVSS    low polyreactivity
QVQLVESGGGLVQAGGSLRLSCAASGLTFSLYALGWYRQAPGKERELVAAISWTGGSTYYADSVKGRFSISRDNAKNTVYLQMKSLKPEDTAVDYCNARYTLFARYGYDYWGQGTQVTVSS    low polyreactivity
QFQLVESGGGLVQAGGSLRLSCAASGRIFYKYVMGWYRQAPGKERELVAAINRSGGTTYYADSVKGRFTISRDNAKNTVYLQMNSLKPEDTAVYYCNATLPDYWPYYYYQGGDDYWGQGTQVTVSS    low polyreactivity
QVQLVESGGGLVQAGGSLRLSCAASGIILAGYGMGWYRQAPGKERELVAAINGCGGSTYYADSVKGRFTISRDNAKNTVYLQMNSLKPEDTAVYYCATDWWSGLYYYWGQGTQVTVSS    high polyreactivity

Count: 6. Required value per item: polyreactivity (PSR sort gate).
1. QLQLVESGGGLVQAGGSLRLSCAASGSNISYYAMGWSRQAPGKERELVAAISKRGASTYYADSVKGRFTISRDKAKNTVFLQMNSLKPEDTAVYYCAAYRQGSAYDYWGQGTQVTVSS
2. QLQLVESGGGLVQAGGSLRLSCAASGSIFASNAMGWYRQAPGKERELVAAISSGGSRTYYADSVKGRFTISRDNAKNSVYLQMNSLKPEDTAVYYCNTVWFYGAKYDYWGQGTQVTVSS
3. QVQLVESGGGLVQAGGSLRLSCAASGLTFYYYVMGWYRQAPGKERELVAAISKSGGRTYYADSVKGRFTISRDNAKNTVYLQMNSLKPEDSAVYYCAAMYTPNYTAYDSWGQGTQVTVSS
4. QVQLVESGGGLVQAGGSLRLSCAASGSIYWNTMGWYRQAPGKERELVAGISSSGDSTYYADSVKGRFTISRDNAKNTVYLQMNSLKPEDTAVYYCAARTRRFRYYYWGQGTQVTVSS
5. QVHLVESGGGLVQAGGSLRLSCAASGSIFLWYTMGWYRQAPGKERELVAAISRTGGSTYYADSVKGRFTISRDNAKNTVYLQMNSLKPEDTAVYYCAASLYSITRARYDYWGQGTQVTVSS
6. QVQLVESGGGLVQAGGSLRLSCAASGITFPANAMGWYRQAPGKERELVAAISSSGGSTYYADSVKGRFTISRDNAKNTVYLQMNSLKPEDTAVYYCAAYYGPSRSLYYYWGQGTQVTVSS

(A)
["high polyreactivity", "high polyreactivity", "high polyreactivity", "high polyreactivity", "high polyreactivity", "high polyreactivity"]
